assay: Study MPKF: plasma pharmacokinetics of MDMA and MDA, single 120 mg MDMA·HCl, fasted/fed; assay type: in vivo, human; settings: human, plasma, oral, 120 mg, fasted treatment group; 72 h; read-out: PK plasma concentration, Median
assay_metric: concentration at 72 h (ng/mL)
Your answer should be a plain number; it is taken to be in ng/mL.

Look at this compound and give its reported concentration at 72 h. CNC(C)Cc1ccc2c(c1)OCO2 (stereo not shown)
0

---

experiment: Study MPKF: plasma pharmacokinetics of MDMA and MDA, single 120 mg MDMA·HCl, fasted/fed; type: in vivo, human; conditions: human, plasma, po, 120 mg, Fed (N = 14); 120 mg MDMA·HCl; geometric mean; read-out: AUC0-72
assay_metric: AUC(0-t) (ng·h/mL)
Your answer should be a plain number; it is taken to be in ng·h/mL.

Look at this molecule and give its reported AUC(0-t). CC(N)Cc1ccc2c(c1)OCO2 (stereo not shown)
322
